# Tested on: RAW 264.7 macrophages
# protocol-notes: SAFIRE macrophage assay: host toxicity (adherent macrophage count, morphology)
# Type: cell-based
# condition-description: 25 uM
Catalogue of molecules with associated 25 uM Avg Cell # Score
metric: 25 uM Avg Cell # Score

>  <molecule>
N[C@H]1CC[C@@H](N2CC(COc3cc(Cl)cc(Cl)c3)OC2=O)CC1 (stereo partly drawn)

>  <metric>
25 uM Avg Cell # Score

>  <experimental-result>
131

$$$$
>  <molecule>
OC(COc1cnsn1)CN1CCC(Nc2nccc(C(F)(F)F)n2)CC1 (stereo not drawn)

>  <metric>
25 uM Avg Cell # Score

>  <experimental-result>
124

$$$$
>  <molecule>
Cc1ccc(Sc2cccc3nc(N)nc(N)c23)cc1

>  <metric>
25 uM Avg Cell # Score

>  <experimental-result>
67

$$$$
>  <molecule>
OC(COc1ccc(Cl)c(Cl)c1)CN1Cc2ccccc2C1 (stereo not drawn)

>  <metric>
25 uM Avg Cell # Score

>  <experimental-result>
63

$$$$
>  <molecule>
NC1CCN(C[C@@H](O)COc2ccc(Cl)c(Cl)c2)C1 (stereo partly drawn)

>  <metric>
25 uM Avg Cell # Score

>  <experimental-result>
113

$$$$
>  <molecule>
OC(COc1cccc2ncccc12)CN1CCC(Nc2nccc(C(F)(F)F)n2)CC1 (stereo not drawn)

>  <metric>
25 uM Avg Cell # Score

>  <experimental-result>
72

$$$$
>  <molecule>
COc1ccc(OCC(O)CN2CCC(Nc3nccs3)CC2)cc1 (stereo not drawn)

>  <metric>
25 uM Avg Cell # Score

>  <experimental-result>
96

$$$$
>  <molecule>
OC(COc1ccc(Cl)c(Cl)c1)CN1CCOC2(CCOCC2)C1 (stereo not drawn)

>  <metric>
25 uM Avg Cell # Score

>  <experimental-result>
104

$$$$
>  <molecule>
NC1CCN(CC(O)COc2ccccc2)C1 (stereo not drawn)

>  <metric>
25 uM Avg Cell # Score

>  <experimental-result>
147

$$$$
>  <molecule>
OC(COc1ccc(-c2ccccc2)cc1)CN1CCC(Nc2nccc(C(F)(F)F)n2)CC1 (stereo not drawn)

>  <metric>
25 uM Avg Cell # Score

>  <experimental-result>
114

$$$$
>  <molecule>
NC1CCCN(CC(O)COc2ccc(Cl)c(Cl)c2)C1 (stereo not drawn)

>  <metric>
25 uM Avg Cell # Score

>  <experimental-result>
105

$$$$
>  <molecule>
O[C@H](COc1ccc(Cl)c(Cl)c1)CN1CCC(Nc2nccc(C(F)(F)F)n2)CC1

>  <metric>
25 uM Avg Cell # Score

>  <experimental-result>
67

$$$$
>  <molecule>
NCC1CCN(CC(O)COc2ccc(Cl)c(Cl)c2)C1 (stereo not drawn)

>  <metric>
25 uM Avg Cell # Score

>  <experimental-result>
87

$$$$
>  <molecule>
OC(CNC1CCNCC1)COc1ccc(Cl)cc1Cl (stereo not drawn)

>  <metric>
25 uM Avg Cell # Score

>  <experimental-result>
102

$$$$
>  <molecule>
CCN(CC)C(=O)C1CCN(CC(O)COc2ccc(Cl)c(Cl)c2)CC1 (stereo not drawn)

>  <metric>
25 uM Avg Cell # Score

>  <experimental-result>
88

$$$$
>  <molecule>
N[C@@H]1CCN(CC(O)COc2cc(Cl)cc(Cl)c2)C1 (stereo partly drawn)

>  <metric>
25 uM Avg Cell # Score

>  <experimental-result>
106

$$$$
>  <molecule>
OC(COc1ccc(F)cc1)CN1CCC(Nc2ncccn2)CC1 (stereo not drawn)

>  <metric>
25 uM Avg Cell # Score

>  <experimental-result>
109

$$$$
>  <molecule>
OC(CNC1CCNCC1)COc1cccc(Cl)c1 (stereo not drawn)

>  <metric>
25 uM Avg Cell # Score

>  <experimental-result>
115

$$$$
>  <molecule>
OC(COc1ccc(Cl)c(Cl)c1)CN1CC2CCC1CO2 (stereo not drawn)

>  <metric>
25 uM Avg Cell # Score

>  <experimental-result>
95

$$$$
>  <molecule>
OC(COc1ccc(F)c(F)c1)CN1CCC(Nc2nccc(C(F)(F)F)n2)CC1 (stereo not drawn)

>  <metric>
25 uM Avg Cell # Score

>  <experimental-result>
91

$$$$
>  <molecule>
CN(CC(O)COc1ccc(Cl)c(Cl)c1)C1CCOC1 (stereo not drawn)

>  <metric>
25 uM Avg Cell # Score

>  <experimental-result>
74

$$$$
